Target: Axl (Homo sapiens)
Construct: endogenous in cells; host or cells: HeLa cells
Experiment: Phospho-Akt In-Cell Western Assay (inhibition of Axl activity after Axl-antibody cross-linking)
Type: cell-based
Conditions: Hela cells, phospho-Akt chemiluminescence normalized to relative cell number; compounds of formula (Ia), Table 1; read-out: IC50
pIC50: −log10 of the molar value.
Measured pIC50 accompanies every entry in the list below.

| molecule | recorded.measurement |
| --- | --- |
| CN(C1CCc2ccc(Nc3nc(N)n(-c4cc5c(nn4)-c4ccccc4CCC5)n3)cc2CC1)C1CC2CCC1C2 (stereo not shown) [Compound 24] | 5.00 to 6.00 |
| Nc1nc(Nc2ccc(N3CCC(N)CC3)c(F)c2)nn1-c1cc2c(nn1)-c1ccccc1CCC2 [Compound 87] | > 6.00 |
| N#Cc1cc(Nc2nc(N)n(-c3cc4c(nn3)-c3ccccc3CCC4)n2)ccc1N1CCC(N2CCCC2)CC1 [Compound 18] | > 6.00 |
| Nc1nc(Nc2ccc(OCCN3CCCC3)cc2)nn1-c1ncnc2c1CCCc1ccccc1-2 [Compound 37] | > 6.00 |
| CN(C)CCNC(=O)c1ccc(Nc2nc(N)n(-c3cc4c(nn3)-c3ccccc3CCC4)n2)cc1 [Compound 19] | 5.00 to 6.00 |
| Nc1nc(Nc2ccc(N3CCC(N4CCCC4)CC3)cc2)nn1-c1cc2c(nn1)-c1ccccc1SCC2 [Compound 120] | > 6.00 |

Please examine the following record next.
[Q] For the molecule Nc1nc(Nc2ccc(-c3ccc4c(c3)OCO4)nc2)nn1-c1cc2c(nn1)-c1ccccc1CCC2 [Compound 97] , give its reported pIC50.
[A] < 4.70

* * *

Molecular target: Axl (Homo sapiens, UniProt P30530)
Construct: endogenous in cells; host or cells: HeLa cells
Assay: Phospho-Akt In-Cell Western Assay (inhibition of Axl activity after Axl-antibody cross-linking)
Format: cell-based
Conditions: inhibition of Axl activity; Table 1, compounds of formula (Ia); read-out: IC50
Procedure: The compounds of the invention were tested in the following assay for their ability to inhibit Axl activity. Phospho-Akt In-Cell Western Assay […]
measured.quantity: IC50

Example entries begin here.
| compound | IC50 |
| --- | --- |
| Nc1nc(Nc2ccc3c(c2)CCC(NCC(=O)O)CC3)nn1-c1cc2c(nn1)-c1ccccc1CCC2 (stereo not drawn) [Compound 237] | > 20000 nM |
| Nc1nc(Nc2ccc(C3CCN(C4CC5CCC4C5)CC3)cc2)nn1-c1cc2c(nn1)-c1ccccc1CCC2 (stereo not drawn) [Compound 211] | > 20000 nM |
| Nc1nc(Nc2ccc(N3CCC(N4CCCC4)CC3)c(F)c2)nn1-c1cc2c(nn1)-c1ccccc1CCC2 [Compound 177] | < 1000 nM |
| C[C@@H]1CCCN1C1CCc2ccc(Nc3nc(N)n(-c4cc5c(nn4)-c4ccccc4CCC5)n3)cc2CC1 (stereo partly drawn) [Compound 220] | < 1000 nM |
| CN1CCN(C2CCN(c3ccc(Nc4nc(N)n(-c5cc6c(nn5)-c5ccccc5CCC6)n4)cc3F)CC2)CC1 [Compound 179] | < 1000 nM |

[Q] For the compound Nc1nc(Nc2ccc3c(c2)CCC(NCC2CCCO2)CC3)nn1-c1cc2c(nn1)-c1ccccc1CCC2 (stereo not drawn) [Compound 228] , give its reported IC50.
[A] < 1000 nM

[Q] For the compound Nc1nc(Nc2ccc(C=CCN3CCCCC3)cc2)nn1-c1cc2c(nn1)-c1ccccc1CCC2 [Compound 198] , give its reported IC50.
[A] < 1000 nM

[Q] For the compound Nc1nc(Nc2ccc(N3CCN(CC4CC4)CC3)nc2)nn1-c1cc2c(nn1)-c1ccccc1CCC2 [Compound 187] , give its reported IC50.
[A] 1000 to 10000 nM

[Q] For the compound Nc1nc(Nc2ccc(I)cc2)nn1-c1cc2c(nn1)-c1ccccc1CCC2 [Compound 156] , give its reported IC50.
[A] > 20000 nM

[Q] For the compound CN1CCCC(Oc2ccc(Nc3nc(N)n(-c4cc5c(nn4)-c4ccccc4CCC5)n3)cc2)C1 (stereo not drawn) [Compound 210] , give its reported IC50.
[A] < 1000 nM

[Q] For the compound Nc1nc(Nc2ccc3c(c2)CCC(NCC2CC2)CC3)nn1-c1cc2c(nn1)-c1ccccc1CCC2 (stereo not drawn) [Compound 230] , give its reported IC50.
[A] < 1000 nM

[Q] For the compound CN1CCN(CC=Cc2ccc(Nc3nc(N)n(-c4cc5c(nn4)-c4ccccc4CCC5)n3)cc2)CC1 [Compound 204] , give its reported IC50.
[A] < 1000 nM

* * *

Biological target: Axl (Homo sapiens)
Construct: endogenous in cells; host or cells: HeLa cells
Assay: Phospho-Akt In-Cell Western Assay (inhibition of Axl activity after Axl-antibody cross-linking)
Assay type: cell-based
Conditions: inhibition of Axl activity; Table 1, compounds of formula (Ia); read-out: IC50
pIC50: −log10 of the molar value.
Measured pIC50 accompanies every entry in the list below.

| molecule | pIC50 |
| --- | --- |
| Nc1nc(Nc2ccc3c(c2)CCC(N2CC[C@@H](F)C2)CC3)nn1-c1cc2c(nn1)-c1ccccc1CCC2 (some centres unmarked) [Compound 222] | > 6.00 |

[Q] Tell me its pIC50 on Axl (Homo sapiens): Nc1nc(Nc2ccc3c(c2)CCC(N2CCC(CN4CCCCC4)CC2)CC3)nn1-c1cc2c(nn1)-c1ccccc1CCC2 (centres unmarked) [Compound 233]
[A] > 6.00

[Q] Tell me its pIC50 on Axl (Homo sapiens): CN1CCN(C2CCN(C/C=C/c3ccc(Nc4nc(N)n(-c5cc6c(nn5)-c5ccccc5CCC6)n4)cn3)CC2)CC1 [Compound 135]
[A] > 6.00

* * *

Molecular target: Axl (Homo sapiens, UniProt P30530)
Construct: endogenous in cells; host or cells: HeLa cells
Assay: Phospho-Akt In-Cell Western Assay (inhibition of Axl activity after Axl-antibody cross-linking)
Assay type: cell-based
Settings: inhibition of Axl activity; Table 1, compounds of formula (Ia); read-out: IC50
Protocol: The compounds of the invention were tested in the following assay for their ability to inhibit Axl activity. Phospho-Akt In-Cell Western Assay […]
pIC50: −log10 of the molar value.
Measured pIC50 accompanies every entry in the list below.

Example entries begin here.
| molecule | pIC50 |
| --- | --- |
| Nc1nc(Nc2ccc3c(c2)CNCC3)nn1-c1cc2c(nn1)-c1ccccc1CCC2 | > 6.00 |
| C[C@H]1CN(c2ccc(Nc3nc(N)n(-c4cc5c(nn4)-c4ccccc4CCC5)n3)cn2)CCN1CC1CC1 | > 6.00 |

[Q] For the molecule `CN1CCN(C2CCN(c3ccc(Nc4nc(N)n(-c5cc6c(nn5)-c5ccc(Cl)cc5CCC6)n4)cc3F)CC2)CC1` , give its reported pIC50.
[A] 5.00 to 6.00

[Q] For the molecule Nc1nc(Nc2ccc(N3CCCN(C4CC5CCC4C5)CC3)nc2)nn1-c1cc2c(nn1)-c1ccccc1CCC2 (centres unmarked) , give its reported pIC50.
[A] > 6.00

* * *

Measured IC50 accompanies every entry in the list below.
Biological target: Axl (Homo sapiens)
Construct: endogenous in cells; host or cells: HeLa cells
Sequence (P30530 26-894): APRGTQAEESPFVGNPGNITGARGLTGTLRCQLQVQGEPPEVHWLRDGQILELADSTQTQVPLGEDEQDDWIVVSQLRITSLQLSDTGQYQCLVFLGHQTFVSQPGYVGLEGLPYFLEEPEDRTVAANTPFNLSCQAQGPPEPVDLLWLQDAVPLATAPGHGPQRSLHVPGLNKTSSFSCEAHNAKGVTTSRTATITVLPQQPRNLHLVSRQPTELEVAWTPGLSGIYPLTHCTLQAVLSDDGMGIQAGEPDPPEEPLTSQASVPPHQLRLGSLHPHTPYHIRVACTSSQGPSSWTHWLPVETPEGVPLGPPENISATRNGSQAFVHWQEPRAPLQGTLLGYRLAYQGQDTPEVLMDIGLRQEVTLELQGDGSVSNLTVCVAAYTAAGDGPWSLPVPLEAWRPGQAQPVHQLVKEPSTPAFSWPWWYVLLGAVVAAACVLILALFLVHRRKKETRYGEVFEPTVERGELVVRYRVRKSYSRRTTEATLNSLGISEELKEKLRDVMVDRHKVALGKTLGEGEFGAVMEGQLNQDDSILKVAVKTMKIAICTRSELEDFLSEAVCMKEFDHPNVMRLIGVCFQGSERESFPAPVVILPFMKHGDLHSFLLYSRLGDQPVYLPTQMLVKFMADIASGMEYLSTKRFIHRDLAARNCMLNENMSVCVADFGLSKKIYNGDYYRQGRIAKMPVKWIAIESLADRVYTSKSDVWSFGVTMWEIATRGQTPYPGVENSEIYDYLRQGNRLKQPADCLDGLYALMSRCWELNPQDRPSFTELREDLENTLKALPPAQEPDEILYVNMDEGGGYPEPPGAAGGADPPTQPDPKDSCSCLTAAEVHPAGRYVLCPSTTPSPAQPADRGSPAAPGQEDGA
Experiment: Phospho-Akt In-Cell Western Assay (inhibition of Axl activity after Axl-antibody cross-linking)
Assay type: cell-based
Conditions: Hela cells, phospho-Akt chemiluminescence normalized to relative cell number; compounds of formula (Ib), Table 2; read-out: IC50
Procedure: The compounds of the invention were tested in the following assay for their ability to inhibit Axl activity. Phospho-Akt In-Cell Western Assay […]

| compound | recorded.measurement |
| --- | --- |
| Nc1nc(Nc2ccc(N3CCN(CC4CC4)CC3)c(F)c2)n(-c2cc3c(nn2)-c2ccccc2CCC3)n1 [Compound 244] | < 1 µM |

[Q] For the compound CN1CCN(c2ccc(Nc3nc(N)nn3-c3cc4c(nn3)-c3ccccc3CCC4)cc2F)CC1 [Compound 242] , give its reported IC50.
[A] 1 to 10 µM

[Q] For the compound Nc1nc(Nc2ccc(CN3CCN(C4CCCC4)CC3)cc2)n(-c2cc3c(nn2)-c2ccccc2CCC3)n1 [Compound 166] , give its reported IC50.
[A] 1 to 10 µM

[Q] For the compound CC(C)N1CCN(Cc2ccc(Nc3nc(N)nn3-c3cc4c(nn3)-c3ccccc3CCC4)cc2)CC1 [Compound 167] , give its reported IC50.
[A] 1 to 10 µM

[Q] For the compound Nc1nc(Nc2cnc3c(c2)CC2(CCC3)OCCO2)n(-c2cc3c(nn2)-c2ccccc2CCC3)n1 [Compound 248] , give its reported IC50.
[A] > 20 µM

[Q] For the compound CN(C1CCc2ccc(Nc3nc(N)nn3-c3cc4c(nn3)-c3ccccc3CCC4)cc2CC1)C1CC2CCC1C2 (stereo not drawn) [Compound 161] , give its reported IC50.
[A] 1 to 10 µM
